- assay details: folding stability dG unfold from chymotrypsin proteolysis; higher = more stable
reported endpoint: folding stability dG unfold (kcal/mol)
One number for each entry, in kcal/mol.

> print(dat)
                             query.sequence            reported.endpoint  unit.descriptor  observed
1  SAGGSAAIPLEFELPNGERVTVYYDPETGLFTVEVEVRFGNEKGEPPEVRFRFEVDSLVDLLDFLASAGGSA [r15_31_TrMRF]  folding stability dG unfold         kcal/mol      3.88
2  SAYRIEIEIPSPKLAKKLEALLPPNYRIDNVRRNKNDNQVKITVEYDPGMPPSRMRRIHKEIKELIKELSAG [r14_306_TrROS]  folding stability dG unfold         kcal/mol      2.24
3  SAGGKKKVFLLENGELVVFDPETGKLEPVKLPEIPLTVEVEFEEGEGKIRVTVTNPAGLKLEFEFDFSAGGS [r16_453_TrMRF]  folding stability dG unfold         kcal/mol      3.69
4  SAGGSASMPLTLTFTTPTRTFTVTIPPSKVSSVTVEEKGPTITVTVEAPDSTITINITPSSVTISASAGGSA [r15_598_JUSTAS]  folding stability dG unfold         kcal/mol      4.19
5  SAGGKKKKVKVKVVKVEKLENGTYKVVLEVEVDGKKITLVKEFKTKEDLEKKPKEIEITVEELKKLLKSAGG [r13_540_TrROS_Hall]  folding stability dG unfold         kcal/mol      4.32
6  SAGGSAGGSMKTITVTFSSEEEAKKAAEEILKKEGFDEKIKEVTLTYSKEGNVLTGTVTVKTPSAGGSAGGS [r12_7_JUSTAS]  folding stability dG unfold         kcal/mol       1.2
7  SAGMKLELLLPAEEAVRLFGPDFDARDLARALASEGYVVESVEAEPFPNPEEGGLYLRVTFDVRPPDASAGG [r19_376_TrMRF]  folding stability dG unfold         kcal/mol       1.4
8  SGSPDELEVVESEETVNIPPEELEAKYGIKVPENSTVVIKTKTLKPPSGNDIVEPEIKIYDPVTNEWIELSA [r9_349_JUSTAS]  folding stability dG unfold         kcal/mol    -0.474

Quick one: give me folding stability dG unfold for each item below, same order please.
1. SAGGSMQSVTSYDPNGVTYTTEFLPDEDVVTYTKTTDGTVTTTKVERLDEDGVPVPLSTSTTTLGGSAGGSA [r2_60_JUSTAS]
2. SAGGSAGGEMTAEELAEKLAEELKEKGYEVEVEVVEVEVEEDTVRIKIKLKDGRELEIELKIEPSAGGSAGG [r6_617_TrROS_Hall]
3. SAGGSAGGSAGVRDPDNGEPMPPGDWVIRHRDNEKPHHFLIPPNNAEEFAEDNGIEIHKVSAGGSAGGSAGG [r17_109_TrROS]
4. SAGGSAGGSSMSSTVEKEPDDVLIISTKVFFDTDTYSTLTTIVEVKPPLDPSNPELLARALGLLSAGGSAGG [r6_293_JUSTAS]
5. SAGGSAGGSAGGSLEIEITFELPDDVRLRIRARIEPLPDGSLKVEVEIELIPVKPDEDLSAGGSAGGSAGGS [r10_241_TrMRF]
6. SAGGSAGGSAGGMKTITIKVPSSVSFEEAKKKAEALFPKSIPVKVEYDPKTGTFTVTVESAGGSAGGSAGGS [r10_163_JUSTAS]

Ans.
1: -0.217; 2: 2.79; 3: 1.24; 4: 1.49; 5: 2.9; 6: 2.35

---

- assay details: folding stability dG unfold (combined trypsin and chymotrypsin); higher = more stable
For each record, write down the corresponding folding stability dG unfold.
Numbers only, in kJ/mol.

> print(dat)
                             query.sequence  observed
1  SAGGSAGGSKITIKLIKNGEIVEEKEIEDKKTGKKIKIKAIKKDGKLYLVIEVDGKKYVIPLPSAGGSAGGS [r12_994_TrROS_Hall]        15
2  SAGGSAGGSAGSNVVYLGEEVITEVDPYSDKPYTVKVKVYLEPTPEGEKIIEEVLEKELLSAGGSAGGSAGG [r11_113_JUSTAS]     -3.93
3  SGSLSIEFSSTEPSSPGSITLSKLFPEPEADRATHTIKLPNSTIELEFDSAEDLIKNVEKLLKELGNPGKSA [r9_258_JUSTAS]     0.481
4  SPVTVTITLPNGETITLTFPAGMTAEELKAAVLAELKRLLPPGAKIEVVDIEVTEVVAPGETVTVTVRLTSA [r9_178_TrROS_Hall]      17.4

Items follow; give folding stability dG unfold for each.
1. SAGGRRKIEFEVWIPMDKDGEITPNEIIEEAREIAEALPNFDNVEIEEISIQHHPDGWTRYNITIEVPSAGG [r13_462_TrROS]
2. SPLTPEQIEELAKEIAQEFPNVKVKIYPNDEPIEIKAPGAEIEIWPPPGEFYIQIEFPGNGKPKQIPIPPSA [r9_1062_TrROS]
3. SAGGSAGGSKPEIRKIKIYTKEGGKKIIPVNGTVIEIDGKKYKVKPNDKIKVPKNVKKIEPEGSAGGSAGGS [r12_779_TrMRF]
4. MNVTINITVLSPDSSGYTMKATVTFPETPVTTSKEYKTSDPVSAVEEIIKELVDEENLSNATVTTYPSSRLS [r1_399_JUSTAS]
5. SANGEMTMMFEFEIFFPGLGYRGKIYVMMRIEPTPNQIRIDLMIMIEIEPIPPPPPKVPPEQNPEDADDSAG [r14_435_TrROS]
6. SAGGSGDSMLVPVSESTSSYPPSGIVRSTKTILDPKKGGIITETTTTTLTPDGNPLSTTPSTTVKESAGGSA [r2_253_JUSTAS]

Ans.
9.66
-2.44
0.117
0.18
21.9
-1.02

Please give folding stability dG unfold, item by item, for the list that follows.
1. SAGGSAGGSAMPPDAKPVRTETDPATGTTTEYILYPDSDTTIRKTHLPDGSVQVEEFSVSKTSAGGSAGGSA [r18_521_JUSTAS]
2. SAGMLVRIETLPPGAATEEVVPMTPEEAKEYLEAQGYTVSTDPANPTMTFSHPDATVTVTFEPVPADLRSAG [r5_248_JUSTAS]
3. SMVTSETRETVTVTLPDGTVVTVTVTTHRPADGVPTATVTVTTTSADGTPTTSTHTFPAAEAPALIAAALSA [r9_189_JUSTAS]
4. SAGGSAGGSAGGSMITIEVTTPTEKHTIEVPEDEVPEEELIERAKKLFPDVEKITILKESAGGSAGGSAGGS [r4_235_JUSTAS]
5. SAGGKTYKIKVTVEVKNENGETEKKEYVIEVKENKTPEEIAEELKKKLGVEKVEIVDPKTGKKYTIELSAGG [r13_663_TrROS_Hall]
6. SAGGSAGGSAKIMIPVDTPEEVKDIAEEFASNGNKEVEPHEDGWVSIEFPNGVPIEIWLPKDSAGGSAGGSA [r18_126_TrROS]
7. SAGGSAPEIPTDALVRVRDPNSDKWYEATVLEARKLPGGELVYLIRLTKDGNEELVPTDLATVELKSAGGSA [r15_62_JUSTAS]
8. SAGGSAGGGMPSITLLETVEEKLPGSRTRVTTLSYDPATGNLVVTTTTFASPGTSTTSTTVLPPSAGGSAGG [r6_745_JUSTAS]

Ans.
-2.06
1.53
9.83
2.66
11.8
0.144
5.42
5.56

List reported folding stability dG unfold for each of these sequences:
1. SAGGSAGGGMKITEITIEKDPENPDTYTITIKVDGKTYTITVKKGETLYIFDKDGKLVLEIKVDSAGGSAGG [r6_920_TrROS_Hall]
2. SAGGSAGGSAGVKSVGPIIYPNGEVFGDVKAEEETLPNGKKKLKIYATFSDGSKYEFTLDSAGGSAGGSAGG [r11_810_TrMRF]
3. SAMTVYYKITAEVEKTIGDTPETLTVPLTLTVPPDKLNEEEIKKIAEEKAKELGYTLKKIEISKTPSLPSAG [r14_278_JUSTAS]
4. SAGGMTIELTIVAETEEEAEKAAEELARKLAELYPDLKVKVTVEKVEVKDEETGKTYLVYKVRIEIEPSAGG [r13_545_TrROS_Hall]
5. SAGGSAGGSAGGSPGNYREVEIEFRDPDDNGKEVKIEIWVQPGMPEEQIKEFVRELLRRSAGGSAGGSAGGS [r4_442_TrROS]
6. SAGVISPTDPTTTTTTEVRESEDGTTTTVSTVTYPGTGSTMTVTTTTTHDPSTGTSTVTSTTTTDPSASAGG [r19_342_JUSTAS]
7. SAGKYKIKNVQFSNNSITIEIYDDGKPKAEIPIPPNFPNMKVDAEIDEDGSIKIKFRFNGQPQEIEIPPSAG [r5_533_TrROS]

Ans.
[21.4, 1.36, 8.85, 20.7, 5.54, 4.52, 5.21]
